# Test system: NCI-H1975
# protocol summary: relative viability (nuclei count vs DMSO), 5 days (fraction); higher = more cells survive
# condition info: first compound 6.325 µM
The entries below are paired with their reported relative viability.
Keep the answer to the number alone.

Some solved cases for reference:
Cc1csc(=NC2CCCCC2)n1/N=C/c1ccc(O)c(O)c1O [MIM1] + Cc1cc(Nc2cc(N3CCN(C)CC3)nc(Sc3ccc(NC(=O)C4CC4)cc3)n2)n[nH]1 [Tozasertib] (partner 0.1 µM) | 0.338
Cc1csc(=NC2CCCCC2)n1/N=C/c1ccc(O)c(O)c1O [MIM1] + CC(=O)c1c(C)c2cnc(Nc3ccc(N4CCNCC4)cn3)nc2n(C2CCCC2)c1=O [Palbociclib] (partner 0.5 µM) | 0.256
Cc1csc(=NC2CCCCC2)n1/N=C/c1ccc(O)c(O)c1O [MIM1] + COc1cccc2cc(-c3nc([C@H]4CC[C@H](C(=O)O)CC4)n4ncnc(N)c34)[nH]c12 [OSI-027] (partner 0.5 µM) | 0.36
Cc1csc(=NC2CCCCC2)n1/N=C/c1ccc(O)c(O)c1O [MIM1] + CC(=O)Nc1cccc(-n2c(=O)n(C3CC3)c(=O)c3c(Nc4ccc(I)cc4F)n(C)c(=O)c(C)c32)c1 [Trametinib] (partner 0.02 µM) | 0.208

Next:
Problem: Entry Cc1csc(=NC2CCCCC2)n1/N=C/c1ccc(O)c(O)c1O [MIM1] + CS(=O)(=O)CCNCc1ccc(-c2ccc3ncnc(Nc4ccc(OCc5cccc(F)c5)c(Cl)c4)c3c2)o1 [Lapatinib] (partner 2 µM) has what relative viability?
Result: 0.537

---

# Test system: NCI-H650
# protocol summary: relative viability (nuclei count vs DMSO), 5 days (fraction); higher = more cells survive
# condition info: first compound 2.53 µM
attribute measured: relative viability
Keep the answer to the number alone.

Nc1cccc2c1CN(C1CCC(=O)NC1=O)C2=O (stereo not given) [Lenalidomide] + CC(=O)Nc1cccc(-n2c(=O)n(C3CC3)c(=O)c3c(Nc4ccc(I)cc4F)n(C)c(=O)c(C)c32)c1 [Trametinib] (partner 0.02 µM) | 0.963
Nc1cccc2c1CN(C1CCC(=O)NC1=O)C2=O (stereo not given) [Lenalidomide] + CS(=O)(=O)CCNCc1ccc(-c2ccc3ncnc(Nc4ccc(OCc5cccc(F)c5)c(Cl)c4)c3c2)o1 [Lapatinib] (partner 2 µM) | 1.01

Problem: Lab request: please report relative viability under test system NCI-H650 for Nc1cccc2c1CN(C1CCC(=O)NC1=O)C2=O (stereo not given) [Lenalidomide] + CCNC(=O)c1noc(-c2cc(C(C)C)c(O)cc2O)c1-c1ccc(CN2CCOCC2)cc1 [Luminespib] (partner 0.01 µM)
Result: 0.831

Problem: Please answer likewise for Nc1cccc2c1CN(C1CCC(=O)NC1=O)C2=O (stereo not given) [Lenalidomide] + NC(=O)Nc1cc(-c2cccc(F)c2)sc1C(=O)N[C@H]1CCCNC1 [AZD7762] (partner 0.2 µM)
Result: 1.06

Problem: Please answer likewise for Nc1cccc2c1CN(C1CCC(=O)NC1=O)C2=O (stereo not given) [Lenalidomide] + C[C@@H](Oc1cc(-c2cnn(C3CCNCC3)c2)cnc1N)c1c(Cl)ccc(F)c1Cl [Crizotinib] (partner 1 µM)
Result: 0.863

---

# Tested on: NCI-H23
# protocol summary: relative viability (nuclei count vs DMSO), 5 days (fraction); higher = more cells survive
# condition info: first compound 0.02 µM
attribute measured: relative viability

CCNC(=O)c1noc(-c2cc(C(C)C)c(O)cc2O)c1-c1ccc(CN2CCOCC2)cc1 [Luminespib] + Nc1nc2[nH]cc(CCc3ccc(C(=O)N[C@@H](CCC(=O)O)C(=O)O)cc3)c2c(=O)[nH]1 [Pemetrexed] (partner 0.2 µM) | 0.391

Next:
Problem: Entry CCNC(=O)c1noc(-c2cc(C(C)C)c(O)cc2O)c1-c1ccc(CN2CCOCC2)cc1 [Luminespib] + CS(=O)(=O)CCNCc1ccc(-c2ccc3ncnc(Nc4ccc(OCc5cccc(F)c5)c(Cl)c4)c3c2)o1 [Lapatinib] (partner 2 µM) has what relative viability?
Result: 0.587
